ASSAYED_TARGET: hTRPM8 (Homo sapiens)
Sequence (Q7Z2W7 whole entry): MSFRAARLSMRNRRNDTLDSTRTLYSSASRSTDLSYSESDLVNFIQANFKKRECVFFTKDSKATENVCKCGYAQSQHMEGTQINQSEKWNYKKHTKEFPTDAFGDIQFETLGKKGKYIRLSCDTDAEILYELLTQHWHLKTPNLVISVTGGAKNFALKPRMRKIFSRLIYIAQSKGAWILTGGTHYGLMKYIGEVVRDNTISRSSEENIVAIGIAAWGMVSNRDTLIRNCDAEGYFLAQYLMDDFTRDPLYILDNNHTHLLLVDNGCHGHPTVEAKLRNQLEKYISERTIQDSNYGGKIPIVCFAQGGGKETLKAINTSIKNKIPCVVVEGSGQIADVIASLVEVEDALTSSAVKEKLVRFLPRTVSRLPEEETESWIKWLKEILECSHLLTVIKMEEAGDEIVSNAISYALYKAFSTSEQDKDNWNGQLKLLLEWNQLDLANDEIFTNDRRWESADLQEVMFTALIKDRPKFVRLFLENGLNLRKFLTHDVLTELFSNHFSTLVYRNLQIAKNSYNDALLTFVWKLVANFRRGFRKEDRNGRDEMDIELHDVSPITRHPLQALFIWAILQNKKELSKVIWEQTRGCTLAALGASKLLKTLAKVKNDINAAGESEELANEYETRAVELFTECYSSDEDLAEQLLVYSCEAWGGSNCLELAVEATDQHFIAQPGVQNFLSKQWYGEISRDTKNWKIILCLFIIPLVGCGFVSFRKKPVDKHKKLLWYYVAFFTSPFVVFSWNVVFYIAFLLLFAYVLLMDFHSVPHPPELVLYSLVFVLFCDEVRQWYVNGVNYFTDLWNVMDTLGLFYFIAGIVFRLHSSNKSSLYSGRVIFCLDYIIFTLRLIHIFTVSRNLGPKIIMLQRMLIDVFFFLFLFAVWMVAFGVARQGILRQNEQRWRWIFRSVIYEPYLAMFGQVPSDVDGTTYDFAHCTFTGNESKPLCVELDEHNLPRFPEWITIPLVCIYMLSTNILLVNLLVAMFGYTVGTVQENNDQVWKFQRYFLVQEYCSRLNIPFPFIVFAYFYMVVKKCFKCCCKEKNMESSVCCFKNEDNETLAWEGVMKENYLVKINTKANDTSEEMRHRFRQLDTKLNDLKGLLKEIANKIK
TEST: EC50 measurement on hTRPM8 (response curve)
TEST_SETTINGS: hTRPM8, response curve
pEC50: −log10 of the molar value.
MEASURE: pEC50

I. CC(C)[C@@H]1CC[C@@H](C)CC12COC(C)(C)OC2
II. CCNC(=O)C1CC(C)CCC1C(C)C (stereo not drawn) [WS-3 ™, reference compound]
III. CC(C)[C@@H]1CC[C@@H](C)CC1(CO)CO
IV. CC(C)[C@@H]1CC[C@@H](C)C[C@H]1C(CO)CO
[ask] Could you please sort these 4 entries by pEC50 from high to low? Ranked list of labels, please, in the requested order.
[reply] I, III, II, IV

P. CCOC(=O)CNC(=O)[C@@H]1C[C@H](C)CC[C@H]1C(C)C [WS-5 ™, reference compound]
Q. COc1cc(C2OCC3(CO2)C[C@H](C)CC[C@H]3C(C)C)ccc1O (stereo partly drawn)
[ask] Compare P and Q and name the one whose reported pEC50 is smaller. Write down the label of the entry you select.
[reply] Q
